Biological target: AGO2 WT (phosphosite mutant background) (Homo sapiens, UniProt Q9UKV8 1-859, S387D;S824A;S828D;S831D;S834A)
Sequence (Q9UKV8 whole entry S387D/S824A/S828D/S831D/S834A): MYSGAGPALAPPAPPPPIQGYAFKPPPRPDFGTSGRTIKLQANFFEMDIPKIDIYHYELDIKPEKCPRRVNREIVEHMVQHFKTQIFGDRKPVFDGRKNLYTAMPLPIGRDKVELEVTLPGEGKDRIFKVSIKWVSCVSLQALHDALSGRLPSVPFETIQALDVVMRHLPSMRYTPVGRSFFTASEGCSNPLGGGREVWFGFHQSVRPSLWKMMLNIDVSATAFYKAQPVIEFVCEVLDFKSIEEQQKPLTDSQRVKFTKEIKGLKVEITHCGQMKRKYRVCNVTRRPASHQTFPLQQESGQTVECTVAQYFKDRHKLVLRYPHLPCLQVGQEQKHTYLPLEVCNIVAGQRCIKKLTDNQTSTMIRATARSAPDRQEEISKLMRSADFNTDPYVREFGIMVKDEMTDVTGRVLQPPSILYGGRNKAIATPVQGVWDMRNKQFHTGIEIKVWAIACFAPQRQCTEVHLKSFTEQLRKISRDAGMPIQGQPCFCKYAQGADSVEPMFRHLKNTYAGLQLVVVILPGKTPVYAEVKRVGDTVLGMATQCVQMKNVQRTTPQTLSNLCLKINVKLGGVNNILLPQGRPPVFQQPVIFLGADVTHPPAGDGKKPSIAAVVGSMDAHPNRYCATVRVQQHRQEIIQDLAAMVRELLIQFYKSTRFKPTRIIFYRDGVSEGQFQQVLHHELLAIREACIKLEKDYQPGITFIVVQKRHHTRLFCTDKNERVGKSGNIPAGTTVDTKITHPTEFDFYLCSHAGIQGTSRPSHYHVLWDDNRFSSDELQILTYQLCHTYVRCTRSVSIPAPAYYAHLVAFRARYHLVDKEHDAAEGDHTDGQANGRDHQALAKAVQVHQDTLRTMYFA
Assay: RNA Bind-n-Seq (nitrocellulose filter binding and sequencing); miR-122 guide loaded in AGO2; 60 min incubation; 30 mM Tris pH 8.0, 100 mM potassium acetate, 2 mM magnesium acetate, 0.5 mM TCEP, 0.005% NP-40, 0.01 mg/ml yeast tRNA; 3 nM AGO2-miR-122, 100 nM RNA library; 60; high values mean tight binding
Settings: protein: recombinant; tags: His6 (N-terminal, pFastBac HTA)
Observed Property: binding signal

ACGCTCCG (ssRNA, constant regions annealed to DNA blockers; guide miR-122 5' phosphate) RNA 1: GAGUUCUACAGUCCGACGAUCCCAACACGCUCCGCACCUGGAAUUCUCGGGUGCCAA RNA 2: UGGAGUGUGACAAUGGUGUUUG DNA 1: GATCGTCGGACTGTAGAACTC DNA 2: TTGGCACCCGAGAATTCCA    3.15 fold enrichment over input
GTACTCCA (ssRNA, constant regions annealed to DNA blockers; guide miR-122 5' phosphate) RNA 1: GAGUUCUACAGUCCGACGAUCCCAACGUACUCCACACCUGGAAUUCUCGGGUGCCAA RNA 2: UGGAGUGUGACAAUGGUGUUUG DNA 1: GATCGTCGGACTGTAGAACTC DNA 2: TTGGCACCCGAGAATTCCA    0.714 fold enrichment over input
GTGCTCCA (ssRNA, constant regions annealed to DNA blockers; guide miR-122 5' phosphate) RNA 1: GAGUUCUACAGUCCGACGAUCCCAACGUGCUCCACACCUGGAAUUCUCGGGUGCCAA RNA 2: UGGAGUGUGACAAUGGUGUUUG DNA 1: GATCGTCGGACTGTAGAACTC DNA 2: TTGGCACCCGAGAATTCCA    0.17 fold enrichment over input

Field: next binder
(Q) Return binding signal (reported value) for this binder: ATATTCCA (ssRNA, constant regions annealed to DNA blockers; guide miR-122 5' phosphate) RNA 1: GAGUUCUACAGUCCGACGAUCCCAACAUAUUCCACACCUGGAAUUCUCGGGUGCCAA RNA 2: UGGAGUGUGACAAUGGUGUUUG DNA 1: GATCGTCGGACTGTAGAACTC DNA 2: TTGGCACCCGAGAATTCCA
(A) 0.121 fold enrichment over input
